Tested on: 883617-216-R-J1-PDC complex spheroid viability;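 also: spheroids exposed to compounds for seven days before readout; 100% = DMSO vehicle control viability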
Assay: Anticancer human tumor 883617-216-R-J1-PDC patient-derived bladder carcinoma cell line growth inhibition [POLQ]
Conditions: second compound 3.16 µM; first compound 0.001 µM; active compounds read low
quantity.measured: viability, T/C (%)
Please respond with the number in % and leave the unit unwritten.

[ask] Could you tell me which viability, T/C is on file for Cn1ncnc1[C@H]1c2n[nH]c(=O)c3cc(F)cc(c23)N[C@@H]1c1ccc(F)cc1 + Cc1cccc(N(C)C(=O)C2C(O)CCN2c2nc(C)cc(C(F)(F)F)c2C#N)c1 ?
[reply] 96.8

[ask] Param item = Cn1ncnc1[C@H]1c2n[nH]c(=O)c3cc(F)cc(c23)N[C@@H]1c1ccc(F)cc1 + COC1C(OC(N)=O)C(O)C(Oc2ccc3c(O)c(NC(=O)c4ccc(O)c(CC=C(C)C)c4)c(=O)oc3c2C)OC1(C)C ; retrieve measured viability, T/C.
[reply] 102

[ask] # query: viability, T/C of entry CC[C@@]1(O)C(=O)OCc2c1cc1n(c2=O)Cc2cc3c(CN(C)C)c(O)ccc3nc2-1 + Cc1cccc(N(C)C(=O)C2C(O)CCN2c2nc(C)cc(C(F)(F)F)c2C#N)c1
[reply] 103

[ask] Using the record for CC[C@@]1(O)C(=O)OCc2c1cc1n(c2=O)Cc2cc3c(CN(C)C)c(O)ccc3nc2-1 + COC1C(OC(N)=O)C(O)C(Oc2ccc3c(O)c(NC(=O)c4ccc(O)c(CC=C(C)C)c4)c(=O)oc3c2C)OC1(C)C , report its viability, T/C.
[reply] 89.6

[ask] Would you kindly share the measured viability, T/C for CC[C@@]1(O)C(=O)OCc2c1cc1n(c2=O)Cc2cc3c(CN(C)C)c(O)ccc3nc2-1 + Nc1ccc(C#CCN(C(=O)Cc2ncc(C(F)(F)F)cc2C(F)(F)F)c2ccc(F)cc2)nn1 ?
[reply] 99

[ask] Return reported viability, T/C; argument: Cn1ncnc1[C@H]1c2n[nH]c(=O)c3cc(F)cc(c23)N[C@@H]1c1ccc(F)cc1 + Nc1ccc(C#CCN(C(=O)Cc2ncc(C(F)(F)F)cc2C(F)(F)F)c2ccc(F)cc2)nn1
[reply] 112

Recorded values, source PubChem BioAssay AID1963833.
